- experimentalTarget: T1, Recombinant mouse MMR (R&D Systems) (mouse, UniProt Q61830 20-1388)
- T1 construct: Bought from R&D Systems; Immobilised on CM5 chip (SPR) or coated on plates (ELISA); also called mMMR; recombinant mMMR
- T1 sequence: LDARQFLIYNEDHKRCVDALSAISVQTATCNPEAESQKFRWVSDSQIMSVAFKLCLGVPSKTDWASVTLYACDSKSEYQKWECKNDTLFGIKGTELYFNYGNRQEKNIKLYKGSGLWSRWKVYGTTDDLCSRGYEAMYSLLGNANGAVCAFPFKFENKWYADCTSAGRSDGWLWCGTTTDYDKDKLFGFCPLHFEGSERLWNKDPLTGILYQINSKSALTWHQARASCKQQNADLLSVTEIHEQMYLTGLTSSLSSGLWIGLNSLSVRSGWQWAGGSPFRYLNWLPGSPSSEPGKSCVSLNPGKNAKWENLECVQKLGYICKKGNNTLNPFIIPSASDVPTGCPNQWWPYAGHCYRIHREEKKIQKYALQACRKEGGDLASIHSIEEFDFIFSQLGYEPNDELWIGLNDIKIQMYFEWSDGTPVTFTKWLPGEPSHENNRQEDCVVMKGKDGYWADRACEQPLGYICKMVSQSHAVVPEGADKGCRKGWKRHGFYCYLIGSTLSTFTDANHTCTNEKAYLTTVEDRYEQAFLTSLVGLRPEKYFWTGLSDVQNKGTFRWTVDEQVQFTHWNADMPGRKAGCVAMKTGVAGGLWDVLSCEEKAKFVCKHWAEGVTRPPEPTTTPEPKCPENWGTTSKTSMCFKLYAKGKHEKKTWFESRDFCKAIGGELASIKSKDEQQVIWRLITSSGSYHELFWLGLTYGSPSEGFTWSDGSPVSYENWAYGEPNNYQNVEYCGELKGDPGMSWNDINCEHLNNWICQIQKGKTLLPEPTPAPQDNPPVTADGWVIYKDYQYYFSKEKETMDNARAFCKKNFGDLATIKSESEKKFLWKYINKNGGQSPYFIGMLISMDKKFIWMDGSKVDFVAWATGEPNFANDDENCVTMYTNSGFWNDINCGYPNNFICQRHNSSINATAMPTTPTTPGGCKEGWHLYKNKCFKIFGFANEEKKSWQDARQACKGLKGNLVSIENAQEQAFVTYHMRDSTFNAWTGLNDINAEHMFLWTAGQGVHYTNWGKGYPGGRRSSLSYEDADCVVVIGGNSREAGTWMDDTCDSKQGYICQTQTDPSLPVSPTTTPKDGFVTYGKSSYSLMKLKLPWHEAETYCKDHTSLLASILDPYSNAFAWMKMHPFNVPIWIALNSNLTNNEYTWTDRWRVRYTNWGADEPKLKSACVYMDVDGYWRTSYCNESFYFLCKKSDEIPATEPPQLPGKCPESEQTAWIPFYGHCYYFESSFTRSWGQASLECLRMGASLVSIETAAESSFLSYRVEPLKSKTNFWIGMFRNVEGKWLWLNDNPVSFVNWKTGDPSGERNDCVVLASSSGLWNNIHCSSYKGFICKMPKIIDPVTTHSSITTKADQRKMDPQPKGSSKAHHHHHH
- assayName: SPR, BIAcore T100, MMR on CM5 chip, Nanobody as analyte
endpoint: koff (s⁻¹)

[[record]]
binder = "Bivalent anti-MMR Nanobody 1 with llama IgG2 hinge linker (VHH, Bivalent tandem of two clone 1 VHH domains in one chain; also called biv MMR linker 2 g2c; MMR biv g2c) QVQLQESGGGLVQPGGSLRLSCAASGNIFSINAIGWYRQAPGKQRELVATITLSGSTNYADSVKGRFSISRDNAKNTVYLQMNSLKPEDTAVYYCNANTYSDSDVYGYWGQGTQVTVSSAHHSEDPSSKAPKAPMAQVQLQESGGGLVQPGGSLRLSCAASGNIFSINAIGWYRQAPGKQRELVATITLSGSTNYADSVKGRFSISRDNAKNTVYLQMNSLKPEDTAVYYCNANTYSDSDVYGYWGQGTQVTVSSHHHHHH"
readoutunit = "s⁻¹"
reading = 0.00411

